# Tested on: SNB-19 CNS
# method.summary: NCI tumour cell line growth inhibition, 48 h
measure.name: TGI

* COc1cc(C2C3=C(COC3=O)N(CCO)c3cc4c(cc32)OCCO4)cc(OC)c1OC (centres undefined) | > 50 µM
* Cc1cc(-c2c(F)cc3c4nn([C@H]5CC[C@@H](N(C)C)CC5)c(=O)c-4cn(C4CC4)c3c2F)cc(C)n1 | > 100 µM
* Cc1cccc(C(=O)O)c1C(=O)c1cccc2ccccc12 | > 100 µM
* O=[N+]([O-])c1ccc(Cl)c(CNc2ncnc3c2ncn3C2CCCCO2)c1 (centres undefined) | > 100 µM

###

# Tested on: TK-10 renal
# method.summary: NCI tumour cell line growth inhibition, 48 h
Catalogue of compounds with associated TGI
measure.name: TGI

• O=C1NC(Cc2ccc(O)cc2)C(=O)NC1Cc1ccc(O)cc1 (stereo not drawn) = > 100 µM
• O=C1NC(N2CCOCC2)=N/C1=C\c1ccc(O)cc1 = > 100 µM
• CC1OC(=O)C(O)=C1O (stereo not drawn) = > 100 µM
• C[C@H](C1CC2(C)OC2(C)C(=O)O1)[C@H]1CC[C@H]2[C@@H]3[C@@H]4O[C@@H]4[C@@]4(O)CC=CC(=O)[C@]4(C)[C@H]3CC[C@]12C (stereo partly drawn) = > 50 µM
• CC(=O)OC12C=C(C)C(C(C)C1)C1C(=O)N(CCN3CCCCC3)C(=O)C12 (stereo not drawn) = > 50 µM
• O=C(O)c1ccccc1C1c2ccccc2Oc2ccccc21 = > 100 µM
• Cc1ccccc1NC(=O)CC(=O)NNC(Sc1ccccc1)c1cc(N=Nc2ccc(Br)cc2)ccc1O (stereo not drawn) = > 10 µM
• O=C(N=Nc1ccccc1Cl)NNc1ccccc1Cl = > 100 µM

###

Catalogue of molecules with associated TGI
# Test system: NCI-H460 lung
# method.summary: NCI tumour cell line growth inhibition, 48 h
measure.name: TGI

* CC(=O)OCC1OC(n2c(C)c(C)c(C)c(C#N)c2=S)C(OC(C)=O)C(OC(C)=O)C1OC(C)=O (configuration not stated) | > 100 µM
* OC(NN=C1CCCC1)(C(F)(F)Cl)C(F)(F)Cl | > 10 µM
* Cc1ccc([N+](=O)[O-])c2c(NCCNC(=O)c3cc(C(=O)NCCNc4ccnc5c(C)ccc([N+](=O)[O-])c45)n(C)n3)ccnc12 | > 100 µM
* COC(=O)c1c(-c2cccs2)oc(-c2cccs2)c1C(=O)OC | > 100 µM
* Cc1ccc(C)c(N2C(=O)C(=O)C(c3nc4ccccc4o3)C(=O)C2=O)c1 | > 100 µM
* COc1ccc(C)cc(=O)c1O | > 100 µM
* CCN(CC)CC1CCCCN1CC(=O)N1CC(C)C(=O)Nc2ccccc21 (configuration not stated) | > 100 µM
* COc1ccc(C(=O)c2cc(C)c(OC)c(C)c2)c(OC)c1NC(C)=O | > 33.9 µM
* CC1=C(SC#N)S(=O)(=O)N(c2ccccc2)C(C)=C1SC#N | > 100 µM
* CC(C)=CCC[C@@H](C)C1=C(O)C(Nc2ccccc2I)=C(C)C(=O)C1=O | > 75 µM
* Cc1cccc(C(=O)O)c1C(=O)c1cccc2ccccc12 | > 100 µM
* C#CC1=CC(=O)C(OC)=CC1=O | > 100 µM
